Experiment: probe aWnt5a binding to arrayed compounds – biochemical, biotinylated probe, 635/667 nm fluorescence, primary screen (AID 1113);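 note: score merges 667 nm fluorescence intensity with signal-to-noise per printed feature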
Details: small-molecule microarray, higher = more signal
Label rule, in plain words: composite z-score of -0.0006 and up is t, under -0.0006 is f.

Worked cases, answers included:
compound	label
O=C1C[C@@](C(=O)O)(c2ccc([N+](=O)[O-])cc2)[C@@H](c2ccc(CO)cc2I)N1CC12CC3CC(CC(C3)C1)C2	t
O=c1cccc(-c2ccccc2)o1	f
C=CC[C@]1(C(=O)O)N=C(c2ccc(OCCCO)cc2)O[C@H]1c1ccccc1CN=[N+]=[N-]	f
CCCNC(=O)[C@@]1(C)c2ccccc2C(=O)N(Cc2cc(F)cc(C(F)(F)F)c2)[C@H]1c1ccc(CO)cc1	f

Here is the next item to consider.
Would you say COc1cc(NN2C(C(O)c3ccccc3)C=CC3C(=O)N(c4ccccc4)C(=O)C32)cc(OC)c1OC (stereo unspecified) shows composite z-score at minimum -0.0006?
t
